- Subject of test: HIV-1 pNL4-3 integrase (Human immunodeficiency virus type 1 group M subtype B (isolate NY5) (HIV-1), UniProt P12497)
- Experiment notes: Determination of enzyme (HIV integrase) inhibitory activity
- Experimental context: calculated from inhibition rate (fluorescence)
- Text: The following explains evaluation methods of the HIV integrase inhibitory activity of the compound of the present invention. A full-length gene sequence (Accession No.: M19921) of HIV-1 pNL4-3 integrase was inserted into restriction enzyme Nde I and Xho I sites of plasmid pET21a(+) (manufactured by Novagen) to construct an integrase expression vector pET21a-IN-Wild type. […]
Assignment: determine reported IC50 for the given compounds.
Please give a number only; it is taken to be in nM.

Prompt: Report IC50 for COCCOC[C@H]1CN(C(C)C)C(=O)c2c(O)c(=O)c(-c3nnc(Cc4ccc(F)c(F)c4)s3)cn21 please.
Response: 10

Prompt: Report IC50 for CC(=O)N(C)CC1CN(C(C)C)C(=O)c2c(O)c(=O)c(-c3ncc(Cc4ccc(F)cc4F)s3)cn21 (stereo not drawn) please.
Response: 9.8

Prompt: Report IC50 for COCCOC[C@H]1CN(C(C)C)C(=O)c2c(O)c(=O)c(-c3ncc(Cc4ccc(F)cc4F)s3)cn21 please.
Response: 10
